Give measured protein stability index for each item. Keep answers brief.
B1: NR2F2 (parent)
chain: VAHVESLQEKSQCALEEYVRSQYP

# Variants of: B1
# Assay Comment: protein stability index of a GFP-peptide fusion (GPS, HEK-293T) (PSI 1-6); higher = more stable;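 also: lentivirally expressed fusions sorted by FACS into six bins by GFP to DsRed ratio, PSI derived from sequencing read proportions per bin multiplied by bin number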
# Test Context: c terminus: a fixed tail appended
One number for each entry.

Solved entries:
Mutation String	Number
P24Q	3.35
A2G	3.53
Q8A	3.03
Y23N	4.74

Answer for every listed entry: what is its protein stability index? The entries follow.
1. A14K
2. E9D
3. L7Q
4. Y23K

*A*
3.88
3.59
4.08
3.98

*Q* What does the record list as protein stability index for H3K ?
*A* 3.43

# credit: the supplement of paper PMC10567573
